Cited source for all entries: paper PMC8037182

- System: Caco-2 cell line
- test: Cytotoxicity MTS assay, Caco-2 cell line
- Format: cell-based
- stated.conditions: 25μM; second assay; Caco-2 cell line
Threshold check on OD490 Well 2: at or above 0.6 gives True, strictly below gives False.

Worked cases, answers included:
molecule: CCOC(=O)c1[nH]c(C2NC(=O)NC(C)=C2C(=O)Nc2ccccc2OC)c(C(=O)OC)c1C (centres unmarked)
class.assignment: True
//
molecule: CCOC(=O)C1=C(C)NC(=S)NC1c1cccc(O)c1 (centres unmarked) [Monastrol, monastrol, reference compound]
class.assignment: True
//
molecule: COC(=O)c1[nH]c(C2NC(=S)NC(C)=C2C(=O)c2ccccc2)c(C(=O)OC)c1C (centres unmarked)
class.assignment: False

Please turn your attention to the following entry.
Check if OD490 Well 2 >= 0.6 (inclusive). Item: CCOC(=O)c1[nH]c(C2NC(=O)NC(C)=C2C(=O)Nc2ccccc2C)c(C(=O)OC)c1C (centres unmarked)
False
